# reported IC50; entries follow
- testSystem: UniProt:Q9NYK1
- testName: TLR7 inhibition reporter assay (HEK-Blue SEAP)
- conditionSummary: HEK-Blue cells overexpressing human TLR7, gardiquimod 7.5 μM stimulation
// return the numeric value with its unit appended

CNC(=O)CN1CCN(c2ncc3[nH]c(-c4cc(OC)c5ncnn5c4)c(C(C)C)c3c2F)[C@H](C)C1 : 13 nM

We next turn to a different compound, shown below.
Give recorded IC50 with UniProt:Q9NYK1 for the following compound: Cc1c(-c2[nH]c3cnc(N4CC5(CN(CC#N)C5)C4)c(F)c3c2C(C)C)cn2ncnc2c1C
48 nM

* * *

Entries and their IC50
- testSystem: human TLR8 (Homo sapiens (Human), UniProt Q9NR97)
- Sequence (Q9NR97 27-1041): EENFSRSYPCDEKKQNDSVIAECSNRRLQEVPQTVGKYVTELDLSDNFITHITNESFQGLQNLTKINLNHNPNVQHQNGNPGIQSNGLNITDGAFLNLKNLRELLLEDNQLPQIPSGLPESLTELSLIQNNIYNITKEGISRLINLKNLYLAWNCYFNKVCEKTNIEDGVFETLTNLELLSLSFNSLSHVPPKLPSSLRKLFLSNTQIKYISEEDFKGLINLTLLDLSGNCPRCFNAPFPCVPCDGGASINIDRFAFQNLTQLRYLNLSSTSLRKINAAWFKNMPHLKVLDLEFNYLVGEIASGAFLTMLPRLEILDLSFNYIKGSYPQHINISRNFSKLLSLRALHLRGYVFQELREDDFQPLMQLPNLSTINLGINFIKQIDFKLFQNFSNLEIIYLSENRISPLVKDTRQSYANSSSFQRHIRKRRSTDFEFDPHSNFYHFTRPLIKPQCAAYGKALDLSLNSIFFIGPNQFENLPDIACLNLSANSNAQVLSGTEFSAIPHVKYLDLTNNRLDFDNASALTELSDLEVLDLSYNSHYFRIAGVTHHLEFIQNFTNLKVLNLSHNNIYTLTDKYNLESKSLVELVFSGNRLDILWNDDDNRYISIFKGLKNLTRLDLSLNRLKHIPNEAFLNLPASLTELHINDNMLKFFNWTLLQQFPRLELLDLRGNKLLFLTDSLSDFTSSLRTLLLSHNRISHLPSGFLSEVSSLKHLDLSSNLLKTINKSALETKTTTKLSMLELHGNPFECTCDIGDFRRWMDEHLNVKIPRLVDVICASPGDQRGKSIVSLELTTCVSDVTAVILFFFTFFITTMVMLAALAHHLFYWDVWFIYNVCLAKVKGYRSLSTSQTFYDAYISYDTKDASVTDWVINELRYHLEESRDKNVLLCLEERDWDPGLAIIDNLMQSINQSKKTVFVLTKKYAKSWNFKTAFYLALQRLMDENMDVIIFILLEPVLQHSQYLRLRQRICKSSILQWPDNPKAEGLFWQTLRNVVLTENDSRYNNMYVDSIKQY
- testName: TLR8 inhibition reporter assay (HEK-Blue SEAP);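 note: SEAP driven by IFN-β minimal promoter with five NF-κB and AP-1 sites, compounds tested 0.05 nM to 50 µM, 22 h incubation, inhibition relative to agonist plus DMSO wells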
- conditionSummary: read-out: TLR8 IC50; HEK-Blue cells overexpressing human TLR8, R848 15.9 μM stimulation, SEAP reporter
Supply the numeric figure in nM, leaving out any unit text.

Recorded IC50, per entry:
COc1cc(-c2[nH]c3cnc(C4CCN(C(=O)CN(C)C)CC4)c(F)c3c2C(C)C)cn2ncnc12 [Example 37] : 4.4
COc1cc(-c2[nH]c3cnc(N4CCN(C(=O)CN(C)C)CC4)c(F)c3c2C(C)C)cn2ncnc12 [compound 368] : 2.3
COc1cc(-c2[nH]c3cnc(C4CCC(NCC(C)(C)OC)C4)cc3c2C(C)C)cn2ncnc12 (stereo not shown) [Example 179] : 7

Let's switch to this compound now.
# get_value(readout='IC50', item= COc1cc(-c2[nH]c3cnc(N4CCC(NC(C)C)CC4)c(F)c3c2C(C)C)cn2ncnc12 [Example 157] )
0.51

* * *

- testSystem: human TLR7 (Homo sapiens (Human), UniProt Q9NYK1)
- Sequence (Q9NYK1 27-1049): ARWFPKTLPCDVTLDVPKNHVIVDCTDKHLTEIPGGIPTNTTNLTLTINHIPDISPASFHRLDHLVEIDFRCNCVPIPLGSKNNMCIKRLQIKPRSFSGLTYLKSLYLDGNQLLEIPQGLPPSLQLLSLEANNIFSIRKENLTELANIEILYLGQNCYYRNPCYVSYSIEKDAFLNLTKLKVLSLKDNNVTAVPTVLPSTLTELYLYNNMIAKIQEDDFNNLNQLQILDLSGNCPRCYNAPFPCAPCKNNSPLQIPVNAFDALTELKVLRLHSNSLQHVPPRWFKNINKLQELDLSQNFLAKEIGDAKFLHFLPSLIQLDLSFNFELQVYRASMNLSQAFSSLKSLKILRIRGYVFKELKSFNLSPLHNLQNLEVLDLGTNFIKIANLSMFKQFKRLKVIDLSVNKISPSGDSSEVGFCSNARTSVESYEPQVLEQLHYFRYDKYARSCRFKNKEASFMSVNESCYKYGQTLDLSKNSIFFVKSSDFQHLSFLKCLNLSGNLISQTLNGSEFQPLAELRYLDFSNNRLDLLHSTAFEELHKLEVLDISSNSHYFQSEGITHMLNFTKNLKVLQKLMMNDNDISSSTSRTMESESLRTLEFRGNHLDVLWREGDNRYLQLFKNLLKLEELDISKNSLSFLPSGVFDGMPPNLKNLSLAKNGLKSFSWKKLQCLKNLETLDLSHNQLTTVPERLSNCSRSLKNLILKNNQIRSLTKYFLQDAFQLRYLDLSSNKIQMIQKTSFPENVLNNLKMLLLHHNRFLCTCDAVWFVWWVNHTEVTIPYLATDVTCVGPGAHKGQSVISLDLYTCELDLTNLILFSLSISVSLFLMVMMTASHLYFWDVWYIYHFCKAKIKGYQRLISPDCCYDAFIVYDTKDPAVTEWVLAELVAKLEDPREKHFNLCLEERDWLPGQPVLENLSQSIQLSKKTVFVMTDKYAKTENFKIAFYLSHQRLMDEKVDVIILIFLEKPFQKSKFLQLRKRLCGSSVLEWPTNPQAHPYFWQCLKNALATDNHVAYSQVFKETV
- testName: TLR7 inhibition reporter assay (HEK-Blue SEAP)
- conditionSummary: HEK-Blue cells overexpressing human TLR7, gardiquimod 7.5 μM stimulation
property: pIC50
Scale explanation: pIC50 corresponds to minus log10 of a concentration expressed in moles per litre.

CNCC(=O)NC1CCN(c2cc3c(C(C)C)c(-c4cc(OC)c5ncnn5c4)[nH]c3cn2)CC1 : 7.92
COCCNC1CCN(c2ncc3[nH]c(-c4cc(OC)c5ncnn5c4)c(C(C)C)c3c2F)CC1 : 9.31
COc1cc(-c2[nH]c3cnc(N4CC5(CN(C)C5)C4)c(F)c3c2C(C)C)cn2ncnc12 : 8.22
CNC(=O)CN1CCC(c2ncc3[nH]c(-c4cc(OC)c5ncnn5c4)c(C(C)C)c3c2F)CC1 : 8.60
Cc1c(-c2[nH]c3cnc(N4CCC(NCC5(C)COC5)CC4)c(C)c3c2C(C)C)cn2ncnc2c1C : 9.05
Cc1c(-c2[nH]c3cnc(C4CCC(NC5CCOCC5)CC4)c(F)c3c2C(C)C)cn2ncnc2c1C (stereo not shown) [Example 134] : 9.01

Now look at this entry.
For human TLR7 (Homo sapiens (Human), UniProt Q9NYK1), provide pIC50 of Cc1c(-c2[nH]c3cnc(C4CCC(N5CC6(COC6)C5)CC4)c(F)c3c2C(C)C)cn2ncnc2c1C (stereo not shown) please.
9.12

* * *

- testSystem: UniProtKB Q9NR97
- testName: TLR8 inhibition reporter assay (HEK-Blue SEAP)
- conditionSummary: read-out: TLR8 IC50; HEK-Blue cells overexpressing human TLR8, R848 15.9 μM stimulation, SEAP reporter
Criterion: IC50 strictly under 10 nM. Met: fulfilled. Not met: not fulfilled.

Report whether reported IC50 is lower than 10 nM (strictly) for COc1cc(-c2[nH]c3cnc(N4CCN(CC(N)=O)CC4)c(C)c3c2C(C)C)cn2ncnc12
fulfilled
